Biological target: human σ2 receptor (TMEM97) (Homo sapiens, UniProt Q5BJF2)
Sequence (Q5BJF2 whole entry): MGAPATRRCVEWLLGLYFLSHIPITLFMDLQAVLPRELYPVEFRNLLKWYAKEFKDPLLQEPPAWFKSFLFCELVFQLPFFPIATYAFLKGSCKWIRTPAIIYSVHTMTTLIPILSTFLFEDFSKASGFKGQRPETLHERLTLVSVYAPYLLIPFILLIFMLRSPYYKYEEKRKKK
Experiment: biochemical
Type: Expi293 membranes
Details: read-out: % of control remaining
API: label(entry) gives Y if the entry's remaining activity at 1 µM is strictly smaller than 60%; on equality or larger values it gives N.

Reference set, count: 5
- molecule: "O=C(Nc1ccc2ncsc2c1)C(=O)N1CCCN(C2CCCC2)CC1"
  answer label: "N"
- molecule: "O=C(CCn1cccn1)NCCN1CCN(CCn2cccn2)CC1"
  answer label: "N"
- molecule: "Cc1ccc(C2=NO[C@@H](CNC(=O)N3CC[C@H](N4CCCC4)C3)C2)cc1C"
  answer label: "N"
- molecule: "CC(C)(C)[C@@H]1CCN(C[C@@H](O)CC2(O)CCCCC2)C1"
  answer label: "Y"
- molecule: "Cc1cc(C(C)(C)C)ccc1OC[C@@H](O)CN1CC[C@]2(CCOC2)C1"
  answer label: "Y"

(Q) Dear reviewer, please state whether `CS[C@@H]1CCN(C[C@@H](O)COC(c2ccc(F)cc2)c2ccc(F)cc2)C1` has remaining activity at 1 µM strictly beneath 60%.
(A) N

(Q) Dear reviewer, please state whether `N/C(=N\Cc1ccc(F)cc1Br)NCC1CCC1` has remaining activity at 1 µM strictly beneath 60%.
(A) Y

----------
Biological target: human σ2 receptor (TMEM97) (Homo sapiens, UniProt Q5BJF2)
Experiment: biochemical
Assay type: Expi293 membranes
Settings: read-out: % of control remaining
Each entry below carries its reported remaining activity at 1 µM.
Use % as the unit, but write only the number.

Check out these entries, answers already filled in.
- molecule: "O=C(NCCCC1CC1)C(=O)NC1CCN([C@H]2CCC[C@@H]2O)CC1"
  value units: "%"
  remaining activity at 1 µM: 110
- molecule: "CCO[C@@H](CC(=O)N1CCCN(C2CCCC2)CC1)C1=CCCC1"
  value units: "%"
  remaining activity at 1 µM: 27.8
- molecule: "Clc1ccccc1Cn1cc(CN2CCC[C@@H]2c2ccc[nH]2)cn1"
  value units: "%"
  remaining activity at 1 µM: 63.8
- molecule: "Cc1cc(NC(=O)[C@H](C)N2CCC[C@@H]([C@H](C)O)C2)ccc1Br"
  value units: "%"
  remaining activity at 1 µM: 70.4
- molecule: "CC[C@H](c1ccccc1)N1CCC(C#N)(c2ccccn2)CC1"
  value units: "%"
  remaining activity at 1 µM: 84

(Q) Item `CCN1CC[C@@H](NC(=O)c2ccnc(-n3cncn3)c2)C[C@@H]1C` : provide remaining activity at 1 µM
(A) 112

(Q) Item `C[C@H](C(=O)NCC1CCCCC1)N1CCC[C@H](N2CCCC2=O)CC1` : provide remaining activity at 1 µM
(A) 111

(Q) Item `C[C@@H]1CN([C@H]2CCc3ccccc3NC2=O)C[C@H]1NC(=O)/C=C\C(C)(C)C` : provide remaining activity at 1 µM
(A) 109

----------
Each entry below carries its reported remaining activity at 1 µM.
Target: UniProt Q5BJF2
Assay: biochemical
Assay type: Expi293 membranes
Settings: read-out: % of control remaining
Use % as the unit, but write only the number.

(Q) Item `CCOCCNC(=O)CN1C[C@@H](O)[C@H](NC(=O)[C@@]23COC[C@@H]2C3)C1` : provide remaining activity at 1 µM
(A) 112

(Q) Item CC1CC(CN2CC(N3CCN(C(=O)[C@H](C)C4CCCC4)CC3)C2)C1 (some centres unmarked) : provide remaining activity at 1 µM
(A) 12.7

(Q) Item `CC(C)NC1CCN(C(=O)Cn2cnc(C(N)=O)n2)CC1` : provide remaining activity at 1 µM
(A) 114

(Q) Item `CC1(C)[C@H](NC(=O)[C@]2(O)CCN(Cc3ccccc3)C2)[C@@H]2CCCO[C@@H]21` : provide remaining activity at 1 µM
(A) 87.5

(Q) Item `Cc1nc(CN2CC[C@H](CC3CC3)C2)nc2ccccc12` : provide remaining activity at 1 µM
(A) 43.5

(Q) Item `CCc1nnsc1C(=O)NCC1CN(C(=O)[C@H]2CCCN2C)C1` : provide remaining activity at 1 µM
(A) 85.7

(Q) Item `CN1CCC[C@@H]2CN(Cn3ccc(-c4ccc(Br)cc4)n3)CC[C@H]21` : provide remaining activity at 1 µM
(A) 104

(Q) Item Cc1noc(-c2cccnc2NC2CCC(N3CCCCC3)CC2)n1 (centres unmarked) : provide remaining activity at 1 µM
(A) 24.7

----------
Molecular target: human σ2 receptor (TMEM97) (Homo sapiens)
Experiment: biochemical
Type: Expi293 membranes
Settings: read-out: % of control remaining
API: label(entry) gives Criterion met if the entry's remaining activity at 1 µM is strictly smaller than 80%; on equality or larger values it gives Criterion not met.

Reference set, count: 5
- molecule: "C[C@H](Cn1cc(Br)cn1)NCc1cn2cc(Cl)ccc2n1"
  answer label: "Criterion met"
- molecule: "Cc1cc(C(=O)NC[C@@H]2CCN(CC(=O)Nc3cnccn3)C2)on1"
  answer label: "Criterion not met"
- molecule: "O=C(Cn1cnnn1)N[C@H]1CCN(c2ncnc3c2CCC3)C[C@H]1O"
  answer label: "Criterion not met"
- molecule: "Cc1c(C(=O)N[C@@H]2CN(C(=O)C3=COCCC3)C[C@@H]2O)cnn1C"
  answer label: "Criterion not met"
- molecule: "C[C@H](C(=O)NC[C@]1(O)CCN(CCC2CCCC2)C1)c1ccccc1"
  answer label: "Criterion met"

(Q) Dear reviewer, please state whether `Cc1ccc(CN2C[C@@H]3CN(C(=O)c4cccn4C)C[C@@H]3C2)cc1C` has remaining activity at 1 µM strictly beneath 80%.
(A) Criterion met

(Q) Dear reviewer, please state whether `Cc1nc2n(n1)CCN(C(=O)C(=O)N[C@@H]1CCO[C@@H](CC(C)C)C1)C2` has remaining activity at 1 µM strictly beneath 80%.
(A) Criterion met

(Q) Dear reviewer, please state whether `Cc1cnc(C(=O)N2C[C@H]3CN(C(=O)CN(C)C(C)C)C[C@H]3C2)cn1` has remaining activity at 1 µM strictly beneath 80%.
(A) Criterion not met

----------
Target: human σ2 receptor (TMEM97) (Homo sapiens)
Experiment: biochemical
Format: Expi293 membranes
Details: read-out: % of control remaining
endpoint label: remaining activity at 1 µM (%)
Use % as the unit, but write only the number.

(Q) Item `Cc1ccc(CCC2CCN(C(=O)CN3C[C@@H]4CC[C@@H](O)[C@H]4C3)CC2)cc1` : provide remaining activity at 1 µM
(A) 0

(Q) Item `C=CCC1(O)CCN([C@H](C)C(=O)N[C@@H](C)c2ccc(Cl)cc2)CC1` : provide remaining activity at 1 µM
(A) 110

(Q) Item `CC(C)N1CCN([C@H]2CCN(C(=O)CC3(O)CCCCC3)C2)CC1` : provide remaining activity at 1 µM
(A) 88.9

(Q) Item `CN1CCN(CCNC(=O)C(=O)NC[C@H]2CCC=CO2)CC1(C)C` : provide remaining activity at 1 µM
(A) 105

(Q) Item `Cc1cc([N+](=O)[O-])cc(C)c1S(=O)(=O)NC[C@H]1CCN(C)C1` : provide remaining activity at 1 µM
(A) 72.3

(Q) Item `Cc1nc(CN[C@H]2C[C@H](NC(=O)Cn3ncn(C)c3=O)C2)cs1` : provide remaining activity at 1 µM
(A) 102

(Q) Item `CCOC(=O)[C@@H]1CCN(C[C@@H](O)COc2cccc(C)c2)C1` : provide remaining activity at 1 µM
(A) 69.5

(Q) Item `CCN(CC)c1ncc(CN2CC(C(C)C)C2)s1` : provide remaining activity at 1 µM
(A) 70.6

----------
Each entry below carries its reported remaining activity at 1 µM.
Biological target: human σ2 receptor (TMEM97) (Homo sapiens)
Test: biochemical
Format: Expi293 membranes
Settings: read-out: % of control remaining
Use % as the unit, but write only the number.

- molecule: "CN1CCN(C2CCN(c3nc(N)c4ccccc4n3)CC2)CC1"
  system: "human σ2 receptor (TMEM97) (Homo sapiens)"
  remaining activity at 1 µM / %: 204

(Q) Item `CN1CCC(C(=O)N2CCC[C@@H](c3nc4ccc(F)cc4o3)C2)CC1` : provide remaining activity at 1 µM
(A) 98.9

(Q) Item `CCCN1C(=O)N(CC(C)(C)N2CCc3ccccc3C2)C(=O)[C@H]1CC` : provide remaining activity at 1 µM
(A) 67.3

(Q) Item `COc1ccc([C@H]2CCN(C[C@@H](O)c3ccc(F)cc3Cl)C2)cc1` : provide remaining activity at 1 µM
(A) 39

----------
Target: UniProt Q5BJF2
Test: biochemical
Type: Expi293 membranes
Conditions: read-out: % of control remaining
Each entry below carries its reported remaining activity at 1 µM.
Use % as the unit, but write only the number.

Check out these entries, answers already filled in.
- molecule: "C[C@H](C(=O)NCc1cc(Br)cs1)N1CCCCCC1"
  value units: "%"
  remaining activity at 1 µM: 86.9
- molecule: "C[C@H](N[C@@H](C)CN1CCN(C)CC1)c1ccc(-c2ccccc2)o1"
  value units: "%"
  remaining activity at 1 µM: 33.8
- molecule: "CCc1c(C(=O)N[C@@H]2CN(C(=O)c3n[nH]cc3C)C[C@@H]2O)cnn1C"
  value units: "%"
  remaining activity at 1 µM: 94.6
- molecule: "Cc1cccc(F)c1C(=O)NCC1CCN(CCn2cncn2)CC1"
  value units: "%"
  remaining activity at 1 µM: 109
- molecule: "COc1cc(Cl)c(C)cc1NC(=O)[C@H](C)N(C)Cc1sccc1C"
  value units: "%"
  remaining activity at 1 µM: 102
- molecule: "C[C@H](CCCc1cccnc1)N[C@@H](C)Cn1cccn1"
  value units: "%"
  remaining activity at 1 µM: 24.9
- molecule: "C[C@@H](C(N)=O)N1CCC[C@H](CNC(=O)c2nn(C)c3c2CCCC3)C1"
  value units: "%"
  remaining activity at 1 µM: 89.3
- molecule: "C[C@@H](CCNC(=O)C1(CN(C)C)CC1)NC(=O)c1ncccc1O"
  value units: "%"
  remaining activity at 1 µM: 111

Please find the next molecule below.
(Q) Item `O=C1Nc2ccccc2CC[C@H]1N1CC[C@@H](COCc2ccccc2)C1` : provide remaining activity at 1 µM
(A) 52.9
